Source of measurements: paper PMC7583046

- measurement_target: T1, human importin α3 (Impα3), intact (human, UniProt O00629 1-521)
- T1 construct: Human importin α3 (KPNA4), intact protein with the IBB domain, residues 1-521; Purification as for ∆Impα3; also called KPNA4; source: E. coli BL21 (DE3), purified (codon-optimized DNA synthesized by NZYtech, in the pHTP1 vector)
- T1 sequence (looked up): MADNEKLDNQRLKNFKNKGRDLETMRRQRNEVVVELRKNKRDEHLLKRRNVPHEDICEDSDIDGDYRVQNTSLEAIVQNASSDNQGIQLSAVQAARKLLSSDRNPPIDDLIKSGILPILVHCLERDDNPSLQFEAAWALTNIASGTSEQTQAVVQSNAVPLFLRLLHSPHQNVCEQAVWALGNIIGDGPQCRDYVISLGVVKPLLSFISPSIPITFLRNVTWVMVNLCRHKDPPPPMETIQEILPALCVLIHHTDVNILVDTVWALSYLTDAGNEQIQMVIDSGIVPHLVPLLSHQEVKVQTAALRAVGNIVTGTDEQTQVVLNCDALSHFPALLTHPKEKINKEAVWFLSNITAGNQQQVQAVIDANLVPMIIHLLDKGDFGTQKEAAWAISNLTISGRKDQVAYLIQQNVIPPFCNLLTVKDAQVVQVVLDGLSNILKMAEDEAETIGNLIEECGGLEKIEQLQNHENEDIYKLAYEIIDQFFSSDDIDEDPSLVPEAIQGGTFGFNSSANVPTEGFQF
- protocol_description: ITC; Impα3 or ∆Impα3 (10-20 μM) in the cell, NLS-NUPR1L (150-300 μM) in the syringe; Tris 50 mM, pH 8, 298 K; single ligand binding site model
- run_parameters: both partners purified

| binder | Kd |
| --- | --- |
| Ac-RTRREQALRTNWPAPGGHERKVAQ-NH2 (NUPR1L residues Arg51 to Gln74, the predicted NLS region; numbering as in intact NUPR1L; also called NLS-NUNPR1L; source: synthetic peptide (NZYtech, purity of 95%)) [NLS-NUPR1L, peptide of the nuclear localization sequence of NUPR1L (residues 51-74)] | 12 µM |
